- Target or test system: T1, human ferroportin (SLC40A1) fused in frame with GFP, stably expressed in HEK293 cells (human, UniProt Q9NP59 1-571)
- T1 sequence (looked up): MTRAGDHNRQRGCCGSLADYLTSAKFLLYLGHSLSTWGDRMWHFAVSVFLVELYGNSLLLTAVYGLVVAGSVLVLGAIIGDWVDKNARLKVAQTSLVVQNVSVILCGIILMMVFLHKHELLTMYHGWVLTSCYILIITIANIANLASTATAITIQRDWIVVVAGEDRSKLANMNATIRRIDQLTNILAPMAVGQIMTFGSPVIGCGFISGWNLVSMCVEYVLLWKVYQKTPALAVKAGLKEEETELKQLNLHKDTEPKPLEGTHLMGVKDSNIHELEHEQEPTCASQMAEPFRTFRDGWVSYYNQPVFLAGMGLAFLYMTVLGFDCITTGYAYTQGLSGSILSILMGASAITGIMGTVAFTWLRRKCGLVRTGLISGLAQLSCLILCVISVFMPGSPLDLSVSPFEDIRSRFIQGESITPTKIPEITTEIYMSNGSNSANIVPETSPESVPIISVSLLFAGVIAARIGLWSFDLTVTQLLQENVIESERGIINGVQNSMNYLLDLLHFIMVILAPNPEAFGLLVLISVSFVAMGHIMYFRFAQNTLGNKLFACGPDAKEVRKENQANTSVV
- Protocol summary: cell-based or functional assay
Non-standard residues stand in square brackets, D forms with d. Groups on a side chain read outwards from the residue. *: point of attachment. Dip = N[C@H](C(=O)O)C(c1ccccc1)c1ccccc1; Palmitoyl = CCCCCCCCCCCCCCCC(=O)*; β3hF = N[C@H](CC(=O)O)Cc1ccccc1; Isovaleryl = CC(C)CC(=O)*; Ahx = NCCCCCC(=O)O
Readout label: FPN IC50 (nM)

P = Isovaleryl-ETH[Dip]PA[dK](Gal)K([Ahx-Palmitoyl])[β3hF]-NH2 [Isovaleric Acid-E-T-H-[Dpa]-P-A-d[Lys(Gal-[Lys(Ahx_Palm)]-[bhPhe]-NH2]
Q = Isovaleryl-ETH[Dip][dK](Gal)AIK([Ahx-Palmitoyl])[β3hF]-NH2 [Isovaleric Acid-E-T-H-[Dpa]-d[Lys(Gal)]-A-I-[Lys(Ahx_Palm)]-[bhPhe]-NH2]
Query: Of the pair P and Q , name the member with the lesser recorded FPN IC50. I would appreciate it if you answered with the label of your choice.
Response: P
